B1: library; numbered along this chain (parent)
chain: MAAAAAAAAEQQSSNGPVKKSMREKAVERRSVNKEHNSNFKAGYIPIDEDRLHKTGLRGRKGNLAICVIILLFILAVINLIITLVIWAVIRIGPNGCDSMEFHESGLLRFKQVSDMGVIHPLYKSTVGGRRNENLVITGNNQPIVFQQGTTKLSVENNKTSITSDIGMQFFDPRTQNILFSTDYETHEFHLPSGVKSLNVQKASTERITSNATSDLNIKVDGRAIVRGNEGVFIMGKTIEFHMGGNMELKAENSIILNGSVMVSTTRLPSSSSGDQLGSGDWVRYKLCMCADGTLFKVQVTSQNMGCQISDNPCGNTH

variants of: B1; assay: SGCB cell-surface expression functional score (HA stain, bin4 vs bin1, normalised to synonymous) (log10 ratio); higher = more cell-surface SGCB (functional)
Lab note: compare SGCB cell-surface expression functional score (log10) against -0.4. Equal or greater, write Met. Smaller, write Not met.

Example entries begin here.
# variant_description, group
rows = [
    ("L108V", "Met"),
    ("S21L", "Met"),
    ("V127M", "Met"),
    ("N39D", "Met"),
    ("L216E", "Not met"),
]

// inclusive: SGCB cell-surface expression functional score (log10) at least -0.4? input: "T266G"
Met

Field entry: "K41E"
Met

Field entry: "K41D"
Met

Field entry: "E49M"
Met

Field entry: "A291V"
Not met

Field entry: "V226I"
Met

Field entry: "A26H"
Met

Field entry: "N258E"
Met

Field entry: "T238M"
Met

Field entry: "N258A"
Met

Field entry: "L52G"
Met

Field entry: "K152P"
Not met

Field entry: "L257S"
Not met

Field entry: "F233S"
Met

Field entry: "E28D"
Met

Field entry: "T205Q"
Not met

Field entry: "I218D"
Not met

Field entry: "S31P"
Met

Field entry: "T182S"
Not met

Field entry: "S125W"
Not met

Field entry: "A224M"
Met

Field entry: "M22K"
Met

Field entry: "I86Q"
Met
